Target: Cathepsin G (Homo sapiens) (UniProt P08311)
Sequence (P08311 whole entry): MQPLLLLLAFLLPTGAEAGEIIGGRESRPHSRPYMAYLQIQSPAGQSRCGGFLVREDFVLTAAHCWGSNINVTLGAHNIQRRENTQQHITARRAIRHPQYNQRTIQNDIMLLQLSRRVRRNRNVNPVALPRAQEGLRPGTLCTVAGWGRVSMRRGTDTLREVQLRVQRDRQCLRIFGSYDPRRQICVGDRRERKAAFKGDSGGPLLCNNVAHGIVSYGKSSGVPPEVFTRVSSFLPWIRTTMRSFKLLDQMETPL
Assay: Inhibition of cathepsin G assessed as association equilibrium constant
Bridge positions count the residues as written; N and C are the ends. Peptide text beside a SMILES is read from it.
Measurement label: Ka (×10⁶ /M)
Please give a number only; it is taken to be in ×10⁶ /M.

Compound	Output unit	Data value
CC[C@H](C)[C@@H]1NC(=O)[C@@H]2CCCN2C(=O)[C@@H]2CCCN2C(=O)[C@H]([C@@H](C)CC)NC(=O)[C@H](CO)NC(=O)[C@H](Cc2ccccc2)NC(=O)[C@H]([C@@H](C)O)NC(=O)[C@@H](NC(=O)[C@H](CCCNC(=N)N)NC(=O)CN)CSSC[C@@H](C(=O)N[C@@H](Cc2ccccc2)C(=O)N2CCC[C@H]2C(=O)N[C@@H](CC(=O)O)C(=O)O)NC1=O (H-GRCTFSIPPICFPD-OH; disulfide 3-11)	×10⁶ /M	3.7

Entry CC[C@H](C)[C@@H]1NC(=O)[C@@H]2CCCN2C(=O)[C@@H]2CCCN2C(=O)[C@H]([C@@H](C)CC)NC(=O)[C@H](CO)NC(=O)[C@H](CCCCN)NC(=O)[C@H]([C@@H](C)O)NC(=O)[C@@H]2CSSC[C@H](NC1=O)C(=O)N[C@@H](Cc1ccccc1)C(=O)N1CCC[C@H]1C(=O)N[C@@H](CC(=O)O)C(=O)NCC(=O)N[C@@H](CCCNC(=N)N)C(=O)N2 under Cathepsin G (Homo sapiens) (UniProt P08311) had Ka of 5.7

---

Each entry below lists one item and its recorded Ka value.
Molecular target: UniProt P00766
Experiment: Inhibition of bovine alpha-chymotrypsin assessed as association equilibrium constant
Bridge positions count the residues as written; N and C are the ends. Square brackets hold non-standard residues; d marks the D form. Peptide text beside a SMILES is read from it. Phe(4-NO2) = N[C@@H](Cc1ccc([N+](=O)[O-])cc1)C(=O)O; Phe(4-NH2) = Nc1ccc(C[C@H](N)C(=O)O)cc1; Phe(4-F) = N[C@@H](Cc1ccc(F)cc1)C(=O)O; Phe(4-Me) = Cc1ccc(C[C@H](N)C(=O)O)cc1; 4Pal = N[C@@H](Cc1ccncc1)C(=O)O
Please give a number only; it is taken to be in ×10¹⁰ /M.

Compound	Ka (×10¹⁰ /M)
CC[C@H](C)[C@@H]1NC(=O)[C@@H]2CCCN2C(=O)[C@@H]2CCCN2C(=O)[C@H]([C@@H](C)CC)NC(=O)[C@H](CO)NC(=O)[C@H](Cc2ccc(N)cc2)NC(=O)[C@H]([C@@H](C)O)NC(=O)[C@@H](NC(=O)[C@H](CCCNC(=N)N)NC(=O)CN)CSSC[C@@H](C(=O)N[C@@H](Cc2ccccc2)C(=O)N2CCC[C@H]2C(=O)N[C@@H](CC(=O)O)C(=O)O)NC1=O (H-GRCT[Phe(4-NH2)]SIPPICFPD-OH; disulfide 3-11)	1.9

For reference, reported Ka for CC[C@H](C)[C@@H]1NC(=O)[C@@H]2CCCN2C(=O)[C@@H]2CCCN2C(=O)[C@H]([C@@H](C)CC)NC(=O)[C@H](CO)NC(=O)[C@H](Cc2ccc(F)cc2)NC(=O)[C@H]([C@@H](C)O)NC(=O)[C@@H](NC(=O)[C@H](CCCNC(=N)N)NC(=O)CN)CSSC[C@@H](C(=O)N[C@@H](Cc2ccccc2)C(=O)N2CCC[C@H]2C(=O)N[C@@H](CC(=O)O)C(=O)O)NC1=O (H-GRCT[Phe(4-F)]SIPPICFPD-OH; disulfide 3-11) stands at 3

For reference, reported Ka for CC[C@H](C)[C@@H]1NC(=O)[C@@H]2CCCN2C(=O)[C@@H]2CCCN2C(=O)[C@H]([C@@H](C)CC)NC(=O)[C@H](CO)NC(=O)[C@H](Cc2ccc([N+](=O)[O-])cc2)NC(=O)[C@H]([C@@H](C)O)NC(=O)[C@@H](NC(=O)[C@H](CCCNC(=N)N)NC(=O)CN)CSSC[C@@H](C(=O)N[C@@H](Cc2ccccc2)C(=O)N2CCC[C@H]2C(=O)N[C@@H](CC(=O)O)C(=O)O)NC1=O (H-GRCT[Phe(4-NO2)]SIPPICFPD-OH; disulfide 3-11) stands at 2.6

For reference, reported Ka for CC[C@H](C)[C@@H]1NC(=O)[C@@H]2CCCN2C(=O)[C@@H]2CCCN2C(=O)[C@H]([C@@H](C)CC)NC(=O)[C@H](CO)NC(=O)[C@H](Cc2ccc(O)cc2)NC(=O)[C@H]([C@@H](C)O)NC(=O)[C@@H](NC(=O)[C@H](CCCNC(=N)N)NC(=O)CN)CSSC[C@@H](C(=O)N[C@@H](Cc2ccccc2)C(=O)N2CCC[C@H]2C(=O)N[C@@H](CC(=O)O)C(=O)O)NC1=O (H-GRCTYSIPPICFPD-OH; disulfide 3-11) stands at 1.9

For reference, reported Ka for CC[C@H](C)[C@@H]1NC(=O)[C@@H]2CCCN2C(=O)[C@@H]2CCCN2C(=O)[C@H]([C@@H](C)CC)NC(=O)[C@H](CO)NC(=O)[C@H](Cc2ccncc2)NC(=O)[C@H]([C@@H](C)O)NC(=O)[C@@H](NC(=O)[C@H](CCCNC(=N)N)NC(=O)CN)CSSC[C@@H](C(=O)N[C@@H](Cc2ccccc2)C(=O)N2CCC[C@H]2C(=O)N[C@@H](CC(=O)O)C(=O)O)NC1=O (H-GRCT[4Pal]SIPPICFPD-OH; disulfide 3-11) stands at 1.1

For reference, reported Ka for CC[C@H](C)[C@@H]1NC(=O)[C@@H]2CCCN2C(=O)[C@@H]2CCCN2C(=O)[C@H]([C@@H](C)CC)NC(=O)[C@H](CO)NC(=O)[C@H](Cc2ccc(C)cc2)NC(=O)[C@H]([C@@H](C)O)NC(=O)[C@@H](NC(=O)[C@H](CCCNC(=N)N)NC(=O)CN)CSSC[C@@H](C(=O)N[C@@H](Cc2ccccc2)C(=O)N2CCC[C@H]2C(=O)N[C@@H](CC(=O)O)C(=O)O)NC1=O (H-GRCT[Phe(4-Me)]SIPPICFPD-OH; disulfide 3-11) stands at 2.5
